In this section we review reported MIC values for a set of molecules.
- System: Streptococcus pneumoniae
- Experimental Protocol: Antibacterial activity against Streptococcus pneumoniae 49619 by broth microdilution method
- Assay type: functional

{"Compound Structure": "CC[C@H]1OC(=O)[C@H](C)C(=O)[C@H](C)[C@@H](O[C@@H]2O[C@H](C)C[C@H](N(C)C)[C@H]2O)[C@](C)(OC)C[C@@H](C)C(=O)[C@H](C)[C@@H]2[C@@H]1OC(=O)N2CCCCn1ccc2ncccc21", "MIC": "≤ 0.05 µg/mL"}
{"Compound Structure": "CC[C@H]1OC(=O)[C@H](C)C(=O)[C@H](C)[C@@H](O[C@@H]2O[C@H](C)C[C@H](N(C)C)[C@H]2O)[C@](C)(OC)C[C@@H](C)C(=O)[C@H](C)[C@@H]2[C@@H]1OC(=O)N2CCCCc1cnc2ccccc2c1", "MIC": "≤ 0.05 µg/mL"}
{"Compound Structure": "CC[C@H]1OC(=O)[C@H](C)C(=O)[C@H](C)[C@@H](O[C@@H]2O[C@H](C)C[C@H](N(C)C)[C@H]2O)[C@](C)(OC)C[C@@H](C)C(=O)[C@H](C)[C@@H]2[C@@H]1OC(=O)N2CCCCn1ccc2ccccc21", "MIC": "≤ 0.05 µg/mL"}

###

- Test system: Staphylococcus aureus
- Experimental Protocol: Antibacterial activity against Staphylococcus aureus 29213 by broth microdilution method
- Assay type: functional
- Test Context: ATCC29213
Reported Property: MIC (µg/mL)

{"Compound Structure": "CC[C@H]1OC(=O)[C@H](C)C(=O)[C@H](C)[C@@H](O[C@@H]2O[C@H](C)C[C@H](N(C)C)[C@H]2O)[C@](C)(OC)C[C@@H](C)C(=O)[C@H](C)[C@@H]2[C@@H]1OC(=O)N2CCCCn1cnc2ncccc21", "Reported Property": "MIC", "Reported": 0.4}
{"Compound Structure": "CC[C@H]1OC(=O)[C@H](C)C(=O)[C@H](C)[C@@H](O[C@@H]2O[C@H](C)C[C@H](N(C)C)[C@H]2O)[C@](C)(OC)C[C@@H](C)C(=O)[C@H](C)[C@@H]2[C@@H]1OC(=O)N2CCCCn1cnc(-c2ccc(C)nc2)c1", "Reported Property": "MIC", "Reported": 0.2}
{"Compound Structure": "CC[C@H]1OC(=O)[C@H](C)C(=O)[C@H](C)[C@@H](O[C@@H]2O[C@H](C)C[C@H](N(C)C)[C@H]2O)[C@](C)(OC)C[C@@H](C)C(=O)[C@H](C)[C@@H]2[C@@H]1OC(=O)N2CCCCn1ccc2ncccc21", "Reported Property": "MIC", "Reported": 0.2}
{"Compound Structure": "CC[C@H]1OC(=O)[C@H](C)C(=O)[C@H](C)[C@@H](O[C@@H]2O[C@H](C)C[C@H](N(C)C)[C@H]2O)[C@](C)(OC)C[C@@H](C)C(=O)[C@H](C)[C@@H]2[C@@H]1OC(=O)N2CCCCc1cnc(-c2cccnc2)s1", "Reported Property": "MIC", "Reported": 0.2}

###

- Test system: Enterococcus faecalis
- Experimental Protocol: Antibacterial activity against Enterococcus faecalis 29212 by broth microdilution method
- Format: functional
Reported Property: MIC (µg/mL)

{"Compound Structure": "CC[C@H]1OC(=O)[C@H](C)C(=O)[C@H](C)[C@@H](O[C@@H]2O[C@H](C)C[C@H](N(C)C)[C@H]2O)[C@](C)(OC)C[C@@H](C)C(=O)[C@H](C)[C@@H]2[C@@H]1OC(=O)N2CCCCc1ccnc2ccccc12", "Target Under Test": "Enterococcus faecalis", "Reported Property": "MIC", "Qualifier Operator": "≤", "Reported": 0.05}
{"Compound Structure": "CC[C@H]1OC(=O)[C@H](C)C(=O)[C@H](C)[C@@H](O[C@@H]2O[C@H](C)C[C@H](N(C)C)[C@H]2O)[C@](C)(OC)C[C@@H](C)C(=O)[C@H](C)[C@@H]2[C@@H]1OC(=O)N2CCCCn1cnc(-c2ccc(C)nc2)c1", "Target Under Test": "Enterococcus faecalis", "Reported Property": "MIC", "Qualifier Operator": "=", "Reported": 0.1}
